# target_entity: Cannabinoid receptor 1 (Homo sapiens, UniProt P21554)
# Sequence (P21554 whole entry): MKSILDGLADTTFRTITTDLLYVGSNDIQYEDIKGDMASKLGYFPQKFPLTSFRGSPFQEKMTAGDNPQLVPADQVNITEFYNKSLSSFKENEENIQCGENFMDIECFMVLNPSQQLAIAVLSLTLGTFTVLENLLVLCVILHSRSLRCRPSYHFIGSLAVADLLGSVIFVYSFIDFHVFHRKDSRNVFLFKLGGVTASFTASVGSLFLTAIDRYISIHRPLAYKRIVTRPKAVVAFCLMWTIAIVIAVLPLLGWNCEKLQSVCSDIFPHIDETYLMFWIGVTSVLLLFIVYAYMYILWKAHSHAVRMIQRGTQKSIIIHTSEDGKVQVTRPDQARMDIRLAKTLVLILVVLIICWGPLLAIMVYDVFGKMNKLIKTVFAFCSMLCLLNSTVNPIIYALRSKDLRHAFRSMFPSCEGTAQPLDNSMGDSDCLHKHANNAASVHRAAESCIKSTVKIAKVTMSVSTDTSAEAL
# assay_explanation: Agonist activity at human recombinant CB1 receptor expressed in Sf9 cells by GTP-europium binding assay relative to CP-55940
Measured Emax values are reported for all entries that follow.
assay_readout: Emax (%)

[[record]]
structure = "CC(C)c1ccc(NC(=O)CCc2nc(-c3ccc(F)cc3Cl)no2)cc1"
target_entity = "Cannabinoid receptor 1 (Homo sapiens, UniProt P21554)"
assay_readout = "Emax"
measured_value = 23

[[record]]
structure = "Fc1ccc(-c2noc(CCCNc3cnc4ccc(OC(F)(F)F)cc4c3)n2)c(Cl)c1"
target_entity = "Cannabinoid receptor 1 (Homo sapiens, UniProt P21554)"
assay_readout = "Emax"
measured_value = 81

[[record]]
structure = "N#Cc1cc(NCCCc2nc(-c3ccc(F)cc3Cl)no2)cnc1OCC(F)(F)F"
target_entity = "Cannabinoid receptor 1 (Homo sapiens, UniProt P21554)"
assay_readout = "Emax"
measured_value = 24

